B1: SERPINB5 (parent)
chain: FPESETKECPFRVNKVCGAACSSK

- Variants of: B1
- assayRemarks: protein stability index of a GFP-peptide fusion (GPS, HEK-293T) (PSI 1-6); higher = more stable;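 note: lentivirally expressed fusions sorted by FACS into six bins by GFP to DsRed ratio, PSI derived from sequencing read proportions per bin multiplied by bin number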
- conditionParameters: c terminus: a fixed tail appended
quantityMeasured: protein stability index
Reply with the value as a number alone.

INSERT INTO results (biosequence, quantitymeasured, val) VALUES
  ('FPESETKECAFRVNKVCGAACSSK [P10A]', 'protein stability index', 2.95);

Prompt: Read off the recorded protein stability index for FPESETKECPFRVNKVGGAACSSK [C17G]
Completion: 2.91

Prompt: Read off the recorded protein stability index for FPESETKECPFRVNKICGAACSSK [V16I]
Completion: 2.04

Sourced from the supplement of paper PMC10567573
